target: UniProt P05804
Sequence (P05804 whole entry): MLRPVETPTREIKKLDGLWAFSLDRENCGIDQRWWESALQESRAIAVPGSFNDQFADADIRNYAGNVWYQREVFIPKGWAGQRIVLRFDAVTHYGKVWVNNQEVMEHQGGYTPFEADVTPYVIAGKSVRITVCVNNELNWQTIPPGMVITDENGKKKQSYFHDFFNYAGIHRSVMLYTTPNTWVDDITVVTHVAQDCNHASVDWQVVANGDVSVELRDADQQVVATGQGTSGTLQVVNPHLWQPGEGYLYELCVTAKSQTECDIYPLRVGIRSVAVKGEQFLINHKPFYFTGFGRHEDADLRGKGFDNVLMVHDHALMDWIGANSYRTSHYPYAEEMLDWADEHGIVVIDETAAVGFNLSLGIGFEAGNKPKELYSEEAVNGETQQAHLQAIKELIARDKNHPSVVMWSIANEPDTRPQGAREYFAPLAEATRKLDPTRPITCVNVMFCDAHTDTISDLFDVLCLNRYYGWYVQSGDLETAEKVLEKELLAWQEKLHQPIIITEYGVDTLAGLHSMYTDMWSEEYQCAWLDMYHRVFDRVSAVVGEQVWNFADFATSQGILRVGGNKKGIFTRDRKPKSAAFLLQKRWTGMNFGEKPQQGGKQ
readout.kind: IC50 (µM)
Numbers only, in µM.

Task item: Specify measured IC50 for O=C(O)[C@H]1NC(=O)[C@H](O)[C@@H](O)[C@@H]1O [GDL, glucaro-δ-lactam, reference compound] .
Reply: 45
